Taken from the supplement of paper PMC10567573.

B1: PKD2L1 (parent)
chain: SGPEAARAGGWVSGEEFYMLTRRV

- Variants of: B1
- procedure details: protein stability index of a GFP-peptide fusion (GPS, HEK-293T) (PSI 1-6); higher = more stable;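 further: lentivirally expressed fusions sorted by FACS into six bins by GFP to DsRed ratio, PSI derived from sequencing read proportions per bin multiplied by bin number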
- protocol conditions: c terminus: a fixed tail appended
Overview of recorded protein stability index for various variants

entry sequence: SGPEAARAGAWVSGEEFYMLTRRV
protein stability index: 2.22
--
entry sequence: SGPEAARAGGWVSGEEFYMLTLRV
protein stability index: 3.52
--
entry sequence: SGPEAARAGGWVSGEEFYALTRRV
protein stability index: 2.13
--
entry sequence: SGPEAATAGGWVSGEEFYMLTRRV
protein stability index: 2.44
--
entry sequence: SGPEAARAGKWVSGEEFYMLTRRV
protein stability index: 2.64
--
entry sequence: SGPEAARAYGWVSGEEFYMLTRRV
protein stability index: 2.21
--
entry sequence: SGPEAARADGWVSGEEFYMLTRRV
protein stability index: 2.5
--
entry sequence: SGPEAARAGGWVSFEEFYMLTRRV
protein stability index: 1.76
--
entry sequence: SGPEAARAGGSVSGEEFYMLTRRV
protein stability index: 2.89
--
entry sequence: SGPEAARAGMWVSGEEFYMLTRRV
protein stability index: 2.31
--
entry sequence: SGPEAARAGGWRSGEEFYMLTRRV
protein stability index: 2.86
--
entry sequence: SGPEAARAGGWVSGEEFYMFTRRV
protein stability index: 1.81
--
entry sequence: SGQEAARAGGWVSGEEFYMLTRRV
protein stability index: 2.44
--
entry sequence: SGPEAARAGGWVFGEEFYMLTRRV
protein stability index: 2.44
--
entry sequence: SGPEAARAHGWVSGEEFYMLTRRV
protein stability index: 2.03
--
entry sequence: SGPEAARAGGWVSGEEFYMLTREV
protein stability index: 2.84
--
entry sequence: SGPEAARAGGWVSGEEFYMQTRRV
protein stability index: 3.1
--
entry sequence: SGPEAARAVGWVSGEEFYMLTRRV
protein stability index: 1.85
--
entry sequence: SGPEAARAGGKVSGEEFYMLTRRV
protein stability index: 2.21
--
entry sequence: SGPEAARAGGWVSGEEFYHLTRRV
protein stability index: 3.08
--
entry sequence: SWPEAARAGGWVSGEEFYMLTRRV
protein stability index: 2.91
--
entry sequence: SGPEAARANGWVSGEEFYMLTRRV
protein stability index: 2.13
--
entry sequence: SGPEAARAGGWVSGEEFYMLARRV
protein stability index: 2.41
--
entry sequence: SGPEAARAGGEVSGEEFYMLTRRV
protein stability index: 4.09
--
entry sequence: SGPEAARAGGWVSGEEFYMLFRRV
protein stability index: 1.5
--
entry sequence: SGPEAARAGGWVSGEEFYMLTCRV
protein stability index: 1.55
--
entry sequence: SGPEAAREGGWVSGEEFYMLTRRV
protein stability index: 3.22
--
entry sequence: SGPEAARAGGWVSGVEFYMLTRRV
protein stability index: 2.03
--
entry sequence: SGPEAARAGGWVSYEEFYMLTRRV
protein stability index: 2.08
--
entry sequence: SGPEAARGGGWVSGEEFYMLTRRV
protein stability index: 2.15
--
entry sequence: SGPEAARAGGWVSGEEFYMLTQRV
protein stability index: 2.25
--
entry sequence: HGPEAARAGGWVSGEEFYMLTRRV
protein stability index: 2.53
--
entry sequence: SGPRAARAGGWVSGEEFYMLTRRV
protein stability index: 2.44
--
entry sequence: SGPEAARAGGWVSGEEFYTLTRRV
protein stability index: 2.94
--
entry sequence: SGPEAARYGGWVSGEEFYMLTRRV
protein stability index: 1.76
--
entry sequence: SGPEAARAGGWVSGEEFYMLTRQV
protein stability index: 1.92
--
entry sequence: SGEEAARAGGWVSGEEFYMLTRRV
protein stability index: 2.43
--
entry sequence: SGPEAARAGGWVSWEEFYMLTRRV
protein stability index: 2.19
--
entry sequence: SGPEGARAGGWVSGEEFYMLTRRV
protein stability index: 3.07
--
entry sequence: SGPEAARAGVWVSGEEFYMLTRRV
protein stability index: 1.72
--
entry sequence: SGPEAARAGGWVSGEMFYMLTRRV
protein stability index: 2.7
--
entry sequence: SGPEAARAGGWVCGEEFYMLTRRV
protein stability index: 2.08
--
entry sequence: SGPEAARAGGWVSGEEFYMLQRRV
protein stability index: 2.94
--
entry sequence: SGPEAARAGGWVSGEEFYMLTRRL
protein stability index: 1.98
--
entry sequence: SGPYAARAGGWVSGEEFYMLTRRV
protein stability index: 1.92
--
entry sequence: SGPEAARAGGWVSGEEFYMLTRKV
protein stability index: 2.45
--
entry sequence: SGPEAARAGGWVWGEEFYMLTRRV
protein stability index: 2.17
--
entry sequence: SGPEAARAGGWVSGEEDYMLTRRV
protein stability index: 4.59
--
entry sequence: SGPEAARAGGWVSGEEAYMLTRRV
protein stability index: 4.1
--
entry sequence: SGPEAARAGGWASGEEFYMLTRRV
protein stability index: 2.51
--
entry sequence: SGPEAARAGGWVSGEECYMLTRRV
protein stability index: 3.03
--
entry sequence: SGPEAARAGGWVSGEEFWMLTRRV
protein stability index: 2.69
--
entry sequence: SGPEAARAGGWVSGEEMYMLTRRV
protein stability index: 3.27
--
entry sequence: SGPEAARAGGWVSGEEFYILTRRV
protein stability index: 2.01
--
entry sequence: SGPEAARAGGWVSGEEFCMLTRRV
protein stability index: 3.05
--
entry sequence: SGPEAARAAGWVSGEEFYMLTRRV
protein stability index: 1.92
--
entry sequence: SGPEMARAGGWVSGEEFYMLTRRV
protein stability index: 2.58
--
entry sequence: SGPEAFRAGGWVSGEEFYMLTRRV
protein stability index: 1.68
--
entry sequence: SGPEFARAGGWVSGEEFYMLTRRV
protein stability index: 2.24
--
entry sequence: SGPEAARAGGWVSGEEQYMLTRRV
protein stability index: 4.05
--
entry sequence: SGPESARAGGWVSGEEFYMLTRRV
protein stability index: 1.96
--
entry sequence: SGPERARAGGWVSGEEFYMLTRRV
protein stability index: 2.4
--
entry sequence: SGLEAARAGGWVSGEEFYMLTRRV
protein stability index: 1.91
--
entry sequence: SGGEAARAGGWVSGEEFYMLTRRV
protein stability index: 2.63
--
entry sequence: SGPEAARAGGWVSGEEFYMLTRRG
protein stability index: 2.48
--
entry sequence: SGPEAARAGGWVDGEEFYMLTRRV
protein stability index: 3.01
--
entry sequence: SGPEAAPAGGWVSGEEFYMLTRRV
protein stability index: 2.68
--
entry sequence: SGPEAARAGNWVSGEEFYMLTRRV
protein stability index: 2.55
--
entry sequence: SGPEYARAGGWVSGEEFYMLTRRV
protein stability index: 2.18
--
entry sequence: SGPEAARAGGWVSGEEFPMLTRRV
protein stability index: 3.21
--
entry sequence: SGPEAARAGGWVSKEEFYMLTRRV
protein stability index: 2.52
--
entry sequence: SGPEATRAGGWVSGEEFYMLTRRV
protein stability index: 2.86
--
entry sequence: SGPEAARAGGWVSGEEFYMATRRV
protein stability index: 3.16
--
entry sequence: SGPEAARAGGWHSGEEFYMLTRRV
protein stability index: 1.84
--
entry sequence: SGPCAARAGGWVSGEEFYMLTRRV
protein stability index: 1.81
--
entry sequence: SGPEAARAGGWVSGEEFTMLTRRV
protein stability index: 3.52
--
entry sequence: SGPEAARAGGWVSGEEFYMLTRRE
protein stability index: 3.16
--
entry sequence: NGPEAARAGGWVSGEEFYMLTRRV
protein stability index: 2.65
--
entry sequence: SGPEAARAGGWVSGFEFYMLTRRV
protein stability index: 3.15
--
entry sequence: SGPEAARAGGRVSGEEFYMLTRRV
protein stability index: 3.19
--
entry sequence: SGPEAARAFGWVSGEEFYMLTRRV
protein stability index: 2.06
--
entry sequence: SGPDAARAGGWVSGEEFYMLTRRV
protein stability index: 2.59
--
entry sequence: SGPEAARAGGWVSGEEFYMLTKRV
protein stability index: 2.04
--
entry sequence: SGPEAARAGGWVSGEEGYMLTRRV
protein stability index: 4.13
--
entry sequence: SGPEAARAGGWVSGEEFYMLTTRV
protein stability index: 1.33
--
entry sequence: SGPEAARARGWVSGEEFYMLTRRV
protein stability index: 1.95
--
entry sequence: SGPEAARAGGWVSGEEHYMLTRRV
protein stability index: 3.33
--
entry sequence: FGPEAARAGGWVSGEEFYMLTRRV
protein stability index: 1.12
--
entry sequence: SGPEAARAGGWVSGEEFYSLTRRV
protein stability index: 3.43
--
entry sequence: SGPEAARAGGWVSGEEFYDLTRRV
protein stability index: 3.5
--
entry sequence: SGPEAARAGGWVSGEEFYMLTRMV
protein stability index: 1.84
